test: Selectivity index, ratio of IC50 for human PTPN1 to IC50 for Mycobacterium tuberculosis PtpB
endpoint-label: Ratio IC50
// response body must contain only the number

Completed entries (count: 3):
>>> df
                                 smiles_str  value_measured
0  O=S(=O)(Nc1ccc(-c2nc3cc(NS(=O)(=O)c4ccccc4O)ccc3o2)cc1)c1ccccc1O              10
1  NCc1ccc(S(=O)(=O)Nc2ccc3oc(-c4ccc(NS(=O)(=O)c5ccc(Cl)s5)cc4)nc3c2)cc1             9.5
2  O=S(=O)(Nc1ccc(-c2nc3cc(NS(=O)(=O)c4ccccc4F)ccc3o2)cc1)c1ccccc1F             1.6

Lookup: Requested field: Ratio IC50. Item: "O=S(=O)(Nc1ccc(-c2nc3cc(NS(=O)(=O)c4ccc(F)cc4)ccc3o2)cc1)c1ccc(F)cc1"
Found: 1.3

Lookup: Give its Ratio IC50 value. Item: "O=S(=O)(Nc1ccc(-c2nc3cc(NS(=O)(=O)c4ccccc4)ccc3o2)cc1)c1ccccc1"
Found: 1.3

Lookup: If you can, please state the reported Ratio IC50 value of "O=S(=O)(Nc1ccc(-c2nc3cc(NS(=O)(=O)c4cccc(O)c4)ccc3o2)cc1)c1cccc(O)c1" .
Found: 25

Lookup: Reported Ratio IC50, compound "O=S(=O)(Nc1ccc2oc(-c3ccc(NS(=O)(=O)c4ccc(Cl)s4)cc3)nc2c1)c1ccccc1" : ____
Found: 1.6

Lookup: Endpoint output: Ratio IC50 of "O=S(=O)(Nc1ccc2oc(-c3ccc(NS(=O)(=O)c4ccc(Cl)s4)cc3)nc2c1)c1cccs1" . Value?
Found: 2.5

The reported numbers originate from ChEMBL document CHEMBL4387722.
